Values from the RNAGym collection of RNA variant scans (doi:10.1002/anie.201605470)

B1: Osa-1-4 twister ribozyme (parent)
chain: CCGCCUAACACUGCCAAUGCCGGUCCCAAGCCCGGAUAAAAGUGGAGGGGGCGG

variants of: B1; experiment: self-cleavage, relative activity (ratio to wild type); higher = more cleavage; co-transcriptional
Use 0.06 as the dividing line for self-cleavage, with the line itself on the yes (1) side and lower values as no (0).

Please review the entries below; each comes with its answer.
- INPUT SEQUENCE: "CCGCCUAACACUGCCAAUUCCGGUCCCAAGCCCGGAUAAAAGUGGACGGGGCGG"
  QUALITATIVE LABEL: "no (0)"
- INPUT SEQUENCE: "CCGCCUAACACUGCCAAUGCCGGUCCCAACCCCGGAUAAAAGUGGAUGGGGCGG"
  QUALITATIVE LABEL: "no (0)"

Q) For this variant, is measured self-cleavage 0.06 or higher? `CCGCCUAACACUGCCAAUGCCGGUCCCAAGCCCGCUUAAAAGUGGAGGGGGCGG`
A) yes (1)

Q) For this variant, is measured self-cleavage 0.06 or higher? `CCGCCUAACACUGCCAAUGCCGGUCCCAAGCCCGGAUAAAAGUAGAGGUGGCGG`
A) yes (1)

Q) For this variant, is measured self-cleavage 0.06 or higher? `CCGCCUAACACUGCCAAUGCCGGUCCCAAGGCCGGAUAAAAGUGGGGGGGGCGG`
A) no (0)
